test.settings: in n-propyl acetate, 318.15 K
measure: solubility (mole fraction)
Write the number on its own, no unit after it.

So for CC(=O)N[C@@H](CC(C)C)C(=O)O , the logged solubility (mole fraction) turned out to be 0.003

---

test.settings: in methanol, 323.15 K
measure: solubility (mole fraction)
Write the number on its own, no unit after it.

So for CC(=O)N[C@@H](CC(C)C)C(=O)O , the logged solubility (mole fraction) turned out to be 0.0824

---

test.settings: in sec-butanol, 318.15 K
measure: solubility (mole fraction)
Write the number on its own, no unit after it.

So for CC(=O)N[C@@H](CC(C)C)C(=O)O , the logged solubility (mole fraction) turned out to be 0.0473

---

test.settings: in ethanol, 323.15 K
measure: solubility (mole fraction)
Write the number on its own, no unit after it.

So for CC(=O)N[C@@H](CC(C)C)C(=O)O , the logged solubility (mole fraction) turned out to be 0.0624

---

test.settings: in methanol, 283.15 K
measure: solubility (mole fraction)
Write the number on its own, no unit after it.

So for CC(=O)N[C@@H](CC(C)C)C(=O)O , the logged solubility (mole fraction) turned out to be 0.0309

---

test.settings: in isopropanol, 303.15 K
measure: solubility (mole fraction)
Write the number on its own, no unit after it.

So for CC(=O)N[C@@H](CC(C)C)C(=O)O , the logged solubility (mole fraction) turned out to be 0.0313

---

test.settings: in acetonitrile, 313.15 K
measure: solubility (mole fraction)

So for CC(=O)N[C@@H](CC(C)C)C(=O)O , the logged solubility (mole fraction) turned out to be 0.00249

---

test.settings: in n-butanol, 288.15 K
measure: solubility (mole fraction)
Write the number on its own, no unit after it.

So for CC(=O)N[C@@H](CC(C)C)C(=O)O , the logged solubility (mole fraction) turned out to be 0.0192
